Target: Mushroom tyrosinase (Agaricus bisporus, UniProt O42713+Q00024+C7FF04+C7FF05)
Test: Inhibition of mushroom tyrosinase using L-DOPA as substrate preincubated with substrate for 10 mins followed by addition of enzyme and measured for 5 mins by spectrophotometric analysis

Input Smiles | System | IC50, nM
COc1ccc(Cl)cc1/C=C/C(=O)N1CCN(c2ccc(F)cc2)CC1 | Mushroom tyrosinase (Agaricus bisporus, UniProt O42713+Q00024+C7FF04+C7FF05) | 27400
COc1ccc(Cl)cc1/C=C/C(=O)N1CCN(c2ccc(F)c(Cl)c2)CC1 | Mushroom tyrosinase (Agaricus bisporus, UniProt O42713+Q00024+C7FF04+C7FF05) | 460
COc1ccc(/C=C/C(=O)N2CCN(c3ccc(F)c(Cl)c3)CC2)cc1[N+](=O)[O-] | Mushroom tyrosinase (Agaricus bisporus, UniProt O42713+Q00024+C7FF04+C7FF05) | 510
O=C(/C=C/c1cccc([N+](=O)[O-])c1)N1CCN(c2ccc(F)c(Cl)c2)CC1 | Mushroom tyrosinase (Agaricus bisporus, UniProt O42713+Q00024+C7FF04+C7FF05) | 160
O=C(/C=C/c1cccc([N+](=O)[O-])c1)N1CCN(c2ccc(F)cc2)CC1 | Mushroom tyrosinase (Agaricus bisporus, UniProt O42713+Q00024+C7FF04+C7FF05) | 23320

###

Listing of entries alongside the reported GI50 at 72 h.
Test: in vitro
Conditions: human, A-375 cells
Description: Cytotoxicity against human A-375 cells assessed as reduction in cell viability incubated for 72 hrs by MTT assay

Input Smiles | GI50 at 72 h
COc1ccc(Cl)cc1/C=C/C(=O)N1CCN(c2ccc(F)c(Cl)c2)CC1 | > 50 µM
COc1cccc(/C=C/C(=O)N2CCN(c3ccc(F)c(Cl)c3)CC2)c1Cl | > 50 µM
O=C(/C=C/c1cccc([N+](=O)[O-])c1)N1CCN(c2ccc(F)c(Cl)c2)CC1 | > 50 µM
COc1ccc(/C=C/C(=O)N2CCN(c3ccc(F)c(Cl)c3)CC2)cc1N | 16.1 µM
COc1ccc(/C=C/C(=O)N2CCN(c3ccc(F)c(Cl)c3)CC2)cc1[N+](=O)[O-] | > 50 µM
O=C(/C=C/c1ccc(Cl)cc1)N1CCN(c2ccc(F)c(Cl)c2)CC1 | 43.8 µM
COc1cccc(/C=C/C(=O)N2CCN(c3ccc(F)c(Cl)c3)CC2)c1 | > 50 µM
O=C(/C=C/c1ccc([N+](=O)[O-])cc1)N1CCN(c2ccc(F)c(Cl)c2)CC1 | > 50 µM

Data credit: ChEMBL document CHEMBL5131480
